experimentalSystem: T1, His9-hMSR1 (human MSR1 extracellular domain) (Homo sapiens, UniProt P21757)
T1 construct: human MSR1 extracellular domain expressed with a N-terminal nonahistidine tag; His9 (nonahistidine) (N); purchased R&D Systems 2708-MS
T1 sequence (P21757 77-451 limits assumed): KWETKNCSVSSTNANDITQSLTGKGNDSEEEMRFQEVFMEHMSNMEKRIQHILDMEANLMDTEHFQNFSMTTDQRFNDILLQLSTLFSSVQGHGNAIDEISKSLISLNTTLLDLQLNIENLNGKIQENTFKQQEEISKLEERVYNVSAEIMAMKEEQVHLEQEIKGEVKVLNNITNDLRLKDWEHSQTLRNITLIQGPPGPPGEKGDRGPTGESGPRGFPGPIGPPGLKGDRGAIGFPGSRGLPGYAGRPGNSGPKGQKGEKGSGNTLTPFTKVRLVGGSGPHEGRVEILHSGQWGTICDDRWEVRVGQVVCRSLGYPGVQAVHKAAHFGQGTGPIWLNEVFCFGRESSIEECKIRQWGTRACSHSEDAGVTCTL
assayName: Biacore surface plasmon resonance binding kinetics of anti-MSR1 mAbs, antibody-capture format
conditionContext: 37° C.; analyte His9-hMSR1; antibody-capture format; NB = no binding observed
Description: Binding affinities and kinetic constants of human anti-MSR1 antibodies for different MSR1 reagents were determined by real-time surface plasmon resonance (Biacore 4000). […] The association rate (ka) and dissociation rate (kd) were determined by fitting the real-time binding sensorgrams to a 1:1 binding model with mass transport limitation using Scrubber 2.0c curve-fitting software. […]
parameter: ka (M⁻¹ s⁻¹)
Could you give me the number in M⁻¹ s⁻¹? Just the number is fine.

>  <molecule>
H1H27731P-N297Q: one of "Twelve anti-MSR1 antibodies"; "made with an N297Q single point mutation in human Fcγ portion" (antibody, V domains shown) VH: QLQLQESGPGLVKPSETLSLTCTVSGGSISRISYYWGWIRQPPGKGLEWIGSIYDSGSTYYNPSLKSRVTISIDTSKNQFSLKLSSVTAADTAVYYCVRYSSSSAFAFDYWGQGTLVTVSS VL: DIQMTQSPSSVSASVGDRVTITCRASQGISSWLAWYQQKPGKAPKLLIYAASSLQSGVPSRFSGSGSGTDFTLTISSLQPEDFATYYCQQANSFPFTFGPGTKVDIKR

>  <ka (M⁻¹ s⁻¹)>
286000

$$$$
>  <molecule>
H1H21231N: "anti-MSR1 antibodies ... (21227N, 21231N, 21234N) were produced with the original human Fcγ portion"; "H1H" = human IgG1 Fc (antibody, V domains shown, human IgG1 Fc, "anti-MSR1 antibodies ; (21227N, 21231N, 21234N) were produced with the original human Fcγ portion"; "H1H" = human IgG1 Fc) VH: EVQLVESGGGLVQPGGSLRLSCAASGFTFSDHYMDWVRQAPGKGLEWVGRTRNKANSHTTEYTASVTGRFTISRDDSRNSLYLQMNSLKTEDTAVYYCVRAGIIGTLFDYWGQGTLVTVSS VL: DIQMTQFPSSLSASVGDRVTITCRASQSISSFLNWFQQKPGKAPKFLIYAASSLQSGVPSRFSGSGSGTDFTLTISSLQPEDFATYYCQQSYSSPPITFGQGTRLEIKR

>  <ka (M⁻¹ s⁻¹)>
702000

$$$$

The record that follows has no ka shown yet.
Find the recorded ka belonging to H1H21231N-N297Q: modified version of "21231N (H1H21231N-N297Q) anti-MSR1 antibodies" with "a N297Q single point mutation" (antibody, V domains shown) VH: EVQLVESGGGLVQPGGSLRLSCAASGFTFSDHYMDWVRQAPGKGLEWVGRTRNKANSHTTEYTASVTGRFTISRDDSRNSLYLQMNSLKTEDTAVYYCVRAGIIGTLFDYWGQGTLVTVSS VL: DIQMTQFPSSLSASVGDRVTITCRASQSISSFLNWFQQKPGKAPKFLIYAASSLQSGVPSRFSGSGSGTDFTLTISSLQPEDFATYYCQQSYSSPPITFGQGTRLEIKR and report it. 534000
